Consider compounds characterized by their logIC50 with TGF-beta receptor type-1 (Homo sapiens) (UniProt P36897).
Sequence (P36897 whole entry): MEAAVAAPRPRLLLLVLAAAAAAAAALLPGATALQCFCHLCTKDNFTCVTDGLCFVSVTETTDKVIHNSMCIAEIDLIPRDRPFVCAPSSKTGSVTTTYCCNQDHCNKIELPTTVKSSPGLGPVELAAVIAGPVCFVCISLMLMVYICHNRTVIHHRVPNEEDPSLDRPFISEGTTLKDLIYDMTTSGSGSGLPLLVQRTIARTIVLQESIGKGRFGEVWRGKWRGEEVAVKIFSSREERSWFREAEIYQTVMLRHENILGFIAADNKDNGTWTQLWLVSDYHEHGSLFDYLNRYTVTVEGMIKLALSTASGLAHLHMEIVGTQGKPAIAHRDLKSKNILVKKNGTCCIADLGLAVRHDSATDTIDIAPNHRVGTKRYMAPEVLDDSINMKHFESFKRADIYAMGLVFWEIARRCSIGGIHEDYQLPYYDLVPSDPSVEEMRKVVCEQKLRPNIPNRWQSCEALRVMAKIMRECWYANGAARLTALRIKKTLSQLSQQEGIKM

Consider the following illustrative entries.
test smiles: Cc1cccc(-c2[nH]c(C(C)(C)C)nc2-c2ccc3c(c2)OCO3)n1
endpoint: logIC50
result: -1.33
--
test smiles: Cc1cccc(-c2[nH]c(CNc3ccc(C(N)=O)cc3)nc2-c2ccc3c(c2)OCO3)n1
endpoint: logIC50
result: -0.582
--
test smiles: Cc1cccc(-c2[nH]c(CNc3ccc(C(N)=O)cc3)nc2-c2ccc3nccnc3c2)n1
endpoint: logIC50
result: -1.12
--
test smiles: CCc1cccc(-c2[nH]c(CNc3cccc(C#N)c3)nc2-c2ccc3nccnc3c2)n1
endpoint: logIC50
result: -0.924
--
test smiles: Cc1cccc(-c2[nH]c(NCc3ccc(C#N)cc3)nc2-c2ccc3c(c2)OCO3)n1
endpoint: logIC50
result: -0.815

State the recorded logIC50 for every item in the following list.
1. CCc1cccc(-c2[nH]c(CNc3cccc(C#N)c3)nc2-c2ccc3c(c2)OCO3)n1
2. Cc1cccc(-c2[nH]c(CNc3cccc(C(N)=O)c3)nc2-c2ccc3c(c2)OCO3)n1
3. Cc1cccc(-c2[nH]c(CNc3ccc(C#N)cc3)nc2-c2ccc3c(c2)OCO3)n1
4. Cc1cccc(-c2[nH]c(CNc3ccc(C#N)cc3)nc2-c2ccc3nccnc3c2)n1

[-1.14, -1.68, -0.759, -1.38]

---

This section lists logIC50 readings for TGF-beta receptor type-1 (Homo sapiens).
Numbers only.

test smiles: Cc1cccc(-c2[nH]c(NCc3cccc(C#N)c3)nc2-c2ccc3c(c2)OCO3)n1
recorded number: -1.62

test smiles: Cc1cccc(-c2[nH]c(CNc3cccc(C#N)c3)nc2-c2ccc3nccnc3c2)n1
recorded number: -1.92

test smiles: CCc1cccc(-c2[nH]c(CNc3ccc(C(N)=O)cc3)nc2-c2ccc3c(c2)OCO3)n1
recorded number: -0.415

test smiles: N#Cc1ccc(-c2nc(-c3ccc4c(c3)OCO4)c(-c3ccccn3)[nH]2)cc1
recorded number: 0.47

test smiles: Cc1cccc(-c2[nH]c(CNc3cccc(C#N)c3)nc2-c2ccc3c(c2)OCO3)n1
recorded number: -1.34

test smiles: CCc1cccc(-c2[nH]c(CNc3cccc(C(N)=O)c3)nc2-c2ccc3c(c2)OCO3)n1
recorded number: -1.34

test smiles: CCc1cccc(-c2[nH]c(CNc3cccc(C(N)=O)c3)nc2-c2ccc3nccnc3c2)n1
recorded number: -1.82

test smiles: O=C(O)c1ccc(-c2nc(-c3ccc4c(c3)OCO4)c(-c3ccccn3)[nH]2)cc1
recorded number: -0.77

We now examine a further compound.
Let me know recorded logIC50 for `CCc1cccc(-c2[nH]c(CNc3ccc(C#N)cc3)nc2-c2ccc3c(c2)OCO3)n1` , thanks.
-0.443

---

biological target: TGF-beta receptor type-1 (Homo sapiens, UniProt P36897)
Sequence (P36897 whole entry): as above
endpoint: IC50

# return recorded IC50 for input `Cc1cccc(-c2[nH]c(CNc3ccc(C#N)cc3)nc2-c2ccc3c(c2)OCO3)n1`
171 nM
